- MEASUREMENT_TARGET: CCR4 (Homo sapiens, UniProt P51679)
- Construct: host or cells: CHO-K1
- Sequence (P51679 1-360): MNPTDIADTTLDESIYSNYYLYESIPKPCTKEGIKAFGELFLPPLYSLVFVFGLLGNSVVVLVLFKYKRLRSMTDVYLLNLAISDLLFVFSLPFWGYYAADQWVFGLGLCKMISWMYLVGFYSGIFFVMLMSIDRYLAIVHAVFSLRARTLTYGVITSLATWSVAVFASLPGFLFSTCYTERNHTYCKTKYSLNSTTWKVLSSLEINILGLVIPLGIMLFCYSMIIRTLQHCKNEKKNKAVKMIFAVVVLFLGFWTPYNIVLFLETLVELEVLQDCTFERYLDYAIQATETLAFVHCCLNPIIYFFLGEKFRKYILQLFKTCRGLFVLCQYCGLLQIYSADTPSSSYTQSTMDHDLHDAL
- METHOD_DESCRIPTION: PathHunter eXpress CCR4 CHO-K1 β-Arrestin GPCR Assay, antagonist format with CCL22
- Type: cell-based
- TEST_SETTINGS: 1 nM CCL22, 0.001 uM
- Protocol: The aim of the present experiment was to analyze if if these peptides are functional using a Discoverx Assay, the Beta-Arrestin recruitment assay, to identify agonism or antagonism in the selected peptides. Standard protocols used: • PathHunter® eXpress CCR4 CHO-K1 β-Arrestin GPCR Assay. 100 dp (1×96-well) The experiment was carried using the manufacturer instructions. We therefore used the assay in an antagonist format, using 10 nM CCL22. […]
QUANTITY_KIND: Raw Data
Give bare numbers.

Consider the worked cases shown below.
> print(dat)
                             sequence.entry  quantity.kind  observed.measurement
1  ACPLMSSVNCTAGCA [24-13-00-N001, bicyclic peptide ligand, TBMB scaffold, from CCR4 cell-based selection]       Raw Data                229814
2  ACLSCARHGNQCA [24-12-00-N001, bicyclic peptide ligand, TATA scaffold, from CCR4 cell-based selection]       Raw Data                205771
3  ACLNGCRNTNSQCA [24-11-00-N001, bicyclic peptide ligand, TATA scaffold, from CCR4 cell-based selection]       Raw Data                139740
4  ACRAVHSLRCLTTCA [24-17-00-N001, bicyclic peptide ligand, TATA scaffold, from CCR4 cell-based selection]       Raw Data                272073
5  ACQLTCLTPARQPGCA [24-14-00-N001, bicyclic peptide ligand, TATA scaffold, from CCR4 cell-based selection]       Raw Data                240299
6  ACQTLCNTAEDIRCA [24-16-00-N001, bicyclic peptide ligand, TBMB scaffold, from CCR4 cell-based selection]       Raw Data                244145

# ---- query sequence ----
Data request: Missing value: Raw Data, CCR4 (Homo sapiens, UniProt P51679), entry ACQLTCLPPPRQPGCA [24-15-00-N001, bicyclic peptide ligand, TATA scaffold, from CCR4 cell-based selection] . Fill in?
Data returned: 244512

---

- MEASUREMENT_TARGET: CCR4 (Homo sapiens, UniProt P51679)
- Construct: host or cells: CHO-K1
- Sequence (P51679 1-360): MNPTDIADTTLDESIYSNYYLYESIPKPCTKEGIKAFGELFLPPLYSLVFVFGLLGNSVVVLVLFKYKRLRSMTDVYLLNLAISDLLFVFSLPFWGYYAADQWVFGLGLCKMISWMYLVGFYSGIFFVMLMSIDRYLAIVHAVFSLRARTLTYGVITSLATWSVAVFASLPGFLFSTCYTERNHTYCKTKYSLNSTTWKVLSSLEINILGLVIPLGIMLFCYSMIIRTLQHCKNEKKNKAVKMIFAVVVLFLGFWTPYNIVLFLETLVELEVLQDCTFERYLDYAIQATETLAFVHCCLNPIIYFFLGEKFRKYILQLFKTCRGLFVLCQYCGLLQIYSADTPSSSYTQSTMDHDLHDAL
- METHOD_DESCRIPTION: PathHunter eXpress CCR4 CHO-K1 β-Arrestin GPCR Assay, antagonist format with CCL22
- Format: cell-based
- TEST_SETTINGS: 10 nM CCL22, 50 uM
Would you mind telling me the reported Raw Data of each entry?
Numbers only.

> print(dat)
                             sequence.entry  quantity.kind  observed.measurement
1  ACPLMSSVNCTAGCA [24-13-00-N001, bicyclic peptide ligand, TBMB scaffold, from CCR4 cell-based selection]       Raw Data                133745

Hi! Can you tell me Raw Data for each of these sequences?
1. ACQLTCLTPARQPGCA [24-14-00-N001, bicyclic peptide ligand, TATA scaffold, from CCR4 cell-based selection]
2. ACLNGCRNTNSQCA [24-11-00-N001, bicyclic peptide ligand, TATA scaffold, from CCR4 cell-based selection]

Data returned:
1: 138731; 2: 119853

---

- MEASUREMENT_TARGET: CCR4 (Homo sapiens)
- Construct: host or cells: CHO-K1
- Sequence (P51679 1-360): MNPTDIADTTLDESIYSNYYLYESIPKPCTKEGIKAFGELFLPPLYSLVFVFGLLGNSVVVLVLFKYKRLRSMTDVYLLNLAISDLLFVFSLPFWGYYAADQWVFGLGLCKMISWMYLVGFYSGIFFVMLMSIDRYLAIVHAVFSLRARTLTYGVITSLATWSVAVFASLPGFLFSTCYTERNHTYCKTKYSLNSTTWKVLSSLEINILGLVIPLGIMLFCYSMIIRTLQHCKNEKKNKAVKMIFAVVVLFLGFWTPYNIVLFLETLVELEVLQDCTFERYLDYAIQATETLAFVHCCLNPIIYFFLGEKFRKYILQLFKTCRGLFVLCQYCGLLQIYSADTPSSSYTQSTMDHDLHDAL
- METHOD_DESCRIPTION: PathHunter eXpress CCR4 CHO-K1 β-Arrestin GPCR Assay, agonist format
- Format: cell-based
- TEST_SETTINGS: 0.06 nM
QUANTITY_KIND: Raw Data
Answers are plain numbers.

> print(dat)
                             sequence.entry   measurement.target  observed.measurement
1  ACPLMSSVNCTAGCA [24-13-00-N001, bicyclic peptide ligand, TBMB scaffold, from CCR4 cell-based selection]  CCR4 (Homo sapiens)                 30335
2  ACLSCARHGNQCA [24-12-00-N001, bicyclic peptide ligand, TATA scaffold, from CCR4 cell-based selection]  CCR4 (Homo sapiens)                 30311
3  ACLNGCRNTNSQCA [24-11-00-N001, bicyclic peptide ligand, TATA scaffold, from CCR4 cell-based selection]  CCR4 (Homo sapiens)                 27885
4  ACRAVHSLRCLTTCA [24-17-00-N001, bicyclic peptide ligand, TATA scaffold, from CCR4 cell-based selection]  CCR4 (Homo sapiens)                 29865
5  ACQTLCNTAEDIRCA [24-16-00-N001, bicyclic peptide ligand, TBMB scaffold, from CCR4 cell-based selection]  CCR4 (Homo sapiens)                 25748
6  ACQLTCLTPARQPGCA [24-14-00-N001, bicyclic peptide ligand, TATA scaffold, from CCR4 cell-based selection]  CCR4 (Homo sapiens)                 30232

# ---- query sequence ----
Data request: Returns the measured Raw Data for the input sequence. Input: ACQLTCLPPPRQPGCA [24-15-00-N001, bicyclic peptide ligand, TATA scaffold, from CCR4 cell-based selection]
Data returned: 26888

---

Would you mind telling me the reported Raw Data of each entry?
- MEASUREMENT_TARGET: CCR4 (Homo sapiens, UniProt P51679)
- Construct: host or cells: CHO-K1
- Sequence (P51679 1-360): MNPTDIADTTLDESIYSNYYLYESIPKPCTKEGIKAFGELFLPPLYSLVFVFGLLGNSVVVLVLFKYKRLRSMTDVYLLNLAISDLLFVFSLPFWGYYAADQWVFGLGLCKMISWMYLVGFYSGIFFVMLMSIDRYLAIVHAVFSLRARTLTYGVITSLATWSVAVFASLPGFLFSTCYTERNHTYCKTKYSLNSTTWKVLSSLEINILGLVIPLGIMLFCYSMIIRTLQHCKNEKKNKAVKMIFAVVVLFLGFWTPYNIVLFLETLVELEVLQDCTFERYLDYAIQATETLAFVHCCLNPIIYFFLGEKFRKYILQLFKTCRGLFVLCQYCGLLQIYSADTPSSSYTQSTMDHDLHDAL
- METHOD_DESCRIPTION: PathHunter eXpress CCR4 CHO-K1 β-Arrestin GPCR Assay, antagonist format with CCL22
- Format: cell-based
- TEST_SETTINGS: 10 nM CCL22, 0.1 uM
Numbers only.

> print(dat)
                             sequence.entry  observed.measurement
1  ACRAVHSLRCLTTCA [24-17-00-N001, bicyclic peptide ligand, TATA scaffold, from CCR4 cell-based selection]                153182
2  ACLNGCRNTNSQCA [24-11-00-N001, bicyclic peptide ligand, TATA scaffold, from CCR4 cell-based selection]                154951
3  ACQLTCLPPPRQPGCA [24-15-00-N001, bicyclic peptide ligand, TATA scaffold, from CCR4 cell-based selection]                162443
4  ACPLMSSVNCTAGCA [24-13-00-N001, bicyclic peptide ligand, TBMB scaffold, from CCR4 cell-based selection]                170995
5  ACQLTCLTPARQPGCA [24-14-00-N001, bicyclic peptide ligand, TATA scaffold, from CCR4 cell-based selection]                168602
6  ACQTLCNTAEDIRCA [24-16-00-N001, bicyclic peptide ligand, TBMB scaffold, from CCR4 cell-based selection]                157585

# ---- query sequence ----
Data request: Returns the measured Raw Data for the input sequence. Input: ACLSCARHGNQCA [24-12-00-N001, bicyclic peptide ligand, TATA scaffold, from CCR4 cell-based selection]
Data returned: 168443
